- System: HepG2
- METHOD DESCRIPTION: GSK_TCMDC: Percent inhibition of human HepG2 cell line. Test compounds present at 10uM.
- Format: functional
# label = met if Inhibition < 30% else not met

Below are worked cases with known answers.
{"MOLECULE": "CN(c1ccc2c(c1)nc(NCc1ccccc1)n2C)c1ccnc(Nc2ccc(CS(C)(=O)=O)cc2)n1.Cl", "GROUP": "not met"}
{"MOLECULE": "O=C(Nc1ccc2c(c1)CCC2)c1ccc(N2CCN(c3ccncc3)CC2)cc1.O=C(O)C(F)(F)F", "GROUP": "not met"}
{"MOLECULE": "Cc1[nH]c(C)c(-c2ccc(CCc3ccc(N)cc3)cc2)c(=O)c1Cl", "GROUP": "met"}
{"MOLECULE": "COc1ccc(-c2csc(NC(=O)CCC(=O)O)n2)cc1OC", "GROUP": "not met"}
{"MOLECULE": "NCCCNc1nc(Nc2cccc(C(N)=O)c2)c2c(=O)[nH]ccc2n1.O=C(O)C(F)(F)F", "GROUP": "met"}

[ask] Is the reported Inhibition for "Br.CC1(C)NC(N)=NC(=N)N1OCCCNC(=O)c1ccc(C(=O)NCCCON2C(=N)N=C(N)NC2(C)C)cc1" strictly below 30%?
[reply] met

[ask] Is the reported Inhibition for CC(C)c1ccc(NC(=O)NCC2CCCN(CCCCCNC(=O)/C=C/c3ccc(Cl)c(Cl)c3)C2)cc1 (centres undefined) strictly below 30%?
[reply] not met

[ask] Is the reported Inhibition for "Cn1cncc1C(=O)Nc1cccc(-c2ccc(-c3nc4ccccc4[nH]3)cc2)c1" strictly below 30%?
[reply] met
